Here, each record is paired with measured pIC50 data.
Target: human recombinant active HPK1 (Homo sapiens)
Construct: purchased Reaction Biology Corp., Malvern, PA, USA (contract assay)
Sequence (Q92918 whole entry): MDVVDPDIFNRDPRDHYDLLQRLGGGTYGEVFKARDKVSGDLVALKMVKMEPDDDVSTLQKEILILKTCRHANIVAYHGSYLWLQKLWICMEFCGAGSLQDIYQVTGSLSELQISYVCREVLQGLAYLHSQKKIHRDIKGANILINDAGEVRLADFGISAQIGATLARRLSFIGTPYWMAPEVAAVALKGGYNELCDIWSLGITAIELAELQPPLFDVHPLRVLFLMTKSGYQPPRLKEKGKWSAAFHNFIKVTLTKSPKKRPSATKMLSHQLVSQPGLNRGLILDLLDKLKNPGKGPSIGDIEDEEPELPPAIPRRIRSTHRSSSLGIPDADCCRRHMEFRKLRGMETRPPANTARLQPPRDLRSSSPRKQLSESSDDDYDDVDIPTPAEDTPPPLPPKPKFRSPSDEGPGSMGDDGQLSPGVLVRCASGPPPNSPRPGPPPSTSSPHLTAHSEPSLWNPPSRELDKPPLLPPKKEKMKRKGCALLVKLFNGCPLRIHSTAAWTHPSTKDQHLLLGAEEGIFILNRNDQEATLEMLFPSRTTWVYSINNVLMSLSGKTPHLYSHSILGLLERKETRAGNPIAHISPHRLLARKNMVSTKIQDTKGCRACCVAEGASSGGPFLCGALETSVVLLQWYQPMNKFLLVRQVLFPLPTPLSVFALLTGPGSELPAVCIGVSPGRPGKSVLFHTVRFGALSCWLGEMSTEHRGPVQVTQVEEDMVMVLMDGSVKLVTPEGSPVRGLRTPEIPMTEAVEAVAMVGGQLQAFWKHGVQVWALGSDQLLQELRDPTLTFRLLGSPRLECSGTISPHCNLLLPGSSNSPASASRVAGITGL
Test: radiometric HotSpot kinase assay (33P-ATP, myelin basic protein substrate)
Format: biochemical
Conditions: 10 concentrations, 3-fold dilution from 100 µM; 10 µM ATP; mean ± SD where given; read-out: IC50
pIC50: −log10 of the molar value.
MEASURED QUANTITY: pIC50

[[record]]
chemical_string = "Cc1cccn2c(=O)c3cc(C(=O)Nc4ccccc4C(N)=O)sc3nc12"
study_target = "human recombinant active HPK1 (Homo sapiens)"
comparison_symbol = "="
observed_result = 4.62

[[record]]
chemical_string = "CCCNC(=O)c1cc2c(=O)n3cccc(C)c3nc2s1"
study_target = "human recombinant active HPK1 (Homo sapiens)"
comparison_symbol = "<"
observed_result = 4.00

[[record]]
chemical_string = "COc1ccc2[nH]c(=O)c(CNc3ccccc3NC(C)=O)cc2c1"
study_target = "human recombinant active HPK1 (Homo sapiens)"
comparison_symbol = "="
observed_result = 4.36

